measuredTarget: P2X2bR (Rattus norvegicus, UniProt P49653, DEL370-438)
Type: cell-based
statedConditions: ATP alone; HEK293 cells; Hill equation
quantity: pEC50
Would you please state pEC50, meaning minus log10 of the concentration in mol/L, as a bare number?

pEC50 recorded for this compound, Nc1ncnc2c1ncn2[C@@H]1O[C@H](COP(=O)([O-])OP(=O)([O-])OP(=O)([O-])O)[C@@H](O)[C@H]1O.[Na+].[Na+].[Na+] [ATP, ATP tri sodium salt] , is 5.12

* * *

measuredTarget: P2X2aR (Rattus norvegicus)
testSummary: ATP-evoked currents, whole-cell patch clamp, HEK293 cells expressing P2X2aR
Assay type: cell-based
statedConditions: ATP alone, Hill equation
quantity: EC50 (µM)
Answer in µM, number only, no unit symbol.

GET /value?item= Nc1ncnc2c1ncn2[C@@H]1O[C@H](COP(=O)([O-])OP(=O)([O-])OP(=O)([O-])O)[C@@H](O)[C@H]1O.[Na+].[Na+].[Na+] [ATP, ATP tri sodium salt] &field=EC50 returns 10.2

* * *

measuredTarget: P2X2aR (Rattus norvegicus, UniProt P49653)
Type: cell-based
statedConditions: ATP alone; Xenopus laevis oocytes; Hill equation
quantity: pEC50
Lab note — pEC50 values are minus log10 of concentrations in M.

The compound identified as Nc1ncnc2c1ncn2[C@@H]1O[C@H](COP(=O)([O-])OP(=O)([O-])OP(=O)([O-])O)[C@@H](O)[C@H]1O.[Na+].[Na+].[Na+] [ATP, ATP tri sodium salt] registered its pEC50 at 4.48

Source: paper PMC6501587
